Listed here are binders together with their documented Neutralization of wild type JCV, EC50 [pM].
Biological target: JCV major capsid protein VP1, wild type (John Cunningham virus (JCV), UniProt P03089 1-354)
Assay: cell-based or functional assay
Recorded Metric: Neutralization of wild type JCV, EC50 [pM] (pM)

binder="1E8 (antibody, V domains shown) VH: QVQLVESGGGLVKPGGSLRLSCAASGFTFSDHYMSWIRQAPGKGLEWVSYISTSGSTIYYADSVKGRFTISRDNAKNSLYLQMNSLRAEDTAVYYCASDYYDNSGWNYWGQGTLVTVSS VL: DVVMTQSPLSLPVTLGQPASISCRSSQSLVYSDGNTYLNWFQQRPGQSPRRLIYKVSDRDSGVPDRFSGSGSGTDFTLRISRVEAEDVGVYYCMQGSHWPRTFGQGTKVEIK" value_units=pM value_observed=127
binder="1A7 (antibody, V domains shown) VH: QVQLVQSGAEVKKPGASVKVSCKASGYTFTFYDINWVRQATGQGLEWMGWMNPNSGNTGYAQNFQGRVTMTRNTSINTAYLELSSLRSEDTAVYYCARKIWVGHTTFDRWGQGTLVTVSS VL: AIQMTQSPSSLSASVGDRVTITCRASQSISGYLNWYQQKPGKAPNLLIYAASNLQSGVPSRFSGSGSGTDFTLTISSLQREDFAPYYCQQTYNIPFTFGGGTKVEIK" value_units=pM value_observed=180
binder="2A11 (antibody, V domains shown) VH: QVQLVESGGGLVKPGGSLRLSCAASGFTFSDHYMSWIRQAPGKGLEWVSYISTSGRTIYYVDSVKGRFTISRDNAKNSLYLQMNSLRAEDMAVYYCASDYYDNVGWNYWGQGALVTVSS VL: DVVLTQSPLSLPVTLGQPASISCRSSQSLVYSDGNTYLNWFQQRPGQSPRRLIYKVSDRDFGVPDRFSGSGSGTDFTLKISRVEAEDVGIYYCMQGTHWPRTFGQGTKVEIK" value_units=pM value_observed=146
binder="1A3 (antibody, V domains shown) VH: QVQLVESGGGLVKPGGSLRLSCAASEITFSDYYMSWIRQAPGKGLEWISYISTSGRTIYFADSVKGRFTISRDNAKNSLYLQMNSLRADDTAVYYCASDFYDNSGWEYWGQGTLVTVSS VL: DVVMTQSPLSLSVTLGQPASISCRSSQSLVYSDGNTYLNWFQQRPGQSPRRLIYKVSDRDSGVPDRFSGSGSGTDFTLKISRAEAEDVGVYYCMQGTHWPRTFGQGTKVEIK" value_units=pM value_observed=301
binder="2A6 (antibody, V domains shown) VH: QVQLQQWGAGLLKPSETLSLTCAVYGGSFSGYYWSWIRQPPGKGLEWIGDINHGGSTNYNPSLKSRVIISVDTSKNQFSLKLSSVTAADTALYYCARGWGGQVAHWFDPWGQGTLGTVSS VL: DIVMTQSPDSLALSLGERATINCKSSQSVLFSSNNQNYLAWYQQKPGQPPKLLIYWASTRESGVPDRFSGSGSGTDFTLTVSSLQAEDVAVYFCQQYYSLPYTFGQGTKLEIK" value_units=pM value_observed=2710

Values compiled from patent US20220356228A1.
